System: MDA-MB-453
Experiment: Cytotoxicity against human MDA-MB-453 cells assessed as inhibition of cell viability after 48 hrs by MTT assay
Assay type: functional, cell-based
Settings: MDA-MB-453, 48 h
measuredQuantity: IC50 (µM)
API: value field is a number in µM; no unit string.

Examples from the recorded data:
compound: O=C1C=CC(=O)c2c(O)cccc21
assayResult: 27.5
//
compound: C=CCOc1cccc2c1C(=O)C=CC2=O
assayResult: 37.8
//
compound: Cc1cc2ccc3c(c2o1)C(=O)C=CC3=O
assayResult: 25.2
//
compound: O=C1C=CC(=O)c2c1ccc1c2OC(CI)C1 (stereo not drawn)
assayResult: 20.8
//
compound: O=C1C=CC(=O)c2c1ccc1c2OCC=C1
assayResult: 37.2
//
compound: C=CCc1ccc2c(c1O)C(=O)C=C(C)C2=O
assayResult: 39

Identify measured IC50 corresponding to `CC1=CC(=O)c2c(ccc3c2OCC=C3)C1=O` 10.9

Quote IC50 reported for `C=CCc1ccc2c(c1O)C(=O)C=CC2=O` please. 53.7

Using the record for `CC1=CC(=O)c2c(O)cccc2C1=O` , state its measured IC50. 34.6

Quickly give me recorded IC50 for `CC1=CC(=O)c2c(ccc3cc(C)oc23)C1=O` 32.6

Return value of IC50 for input `C=CCOc1cccc2c1C(=O)C=C(C)C2=O` , no commentary. 29.3

Kindly indicate its recorded IC50. Item: CC1=CC(=O)c2c(ccc3c2OC(CI)C3)C1=O (stereo not drawn) 21.6

Specify IC50 for COc1cc([C@@H]2c3cc4c(cc3[C@@H](O[C@@H]3O[C@@H]5CO[C@@H](C)O[C@H]5[C@H](O)[C@H]3O)[C@H]3COC(=O)[C@H]23)OCO4)cc(OC)c1O [ETOPOSIDE] and stop. 12.5
